Source listed as PubChem BioAssay.

target: Fibroblast growth factor 2 (Homo sapiens); test: FGF2 binders on small-molecule microarrays, primary screen, biochemical, small-molecule microarray, 635/667 nm fluorescence (AID 1133); settings: small-molecule microarray binding, FGF2, fluorescence 635/667; higher = more signal
Classification field: enter y for composite z-score values not below 0.8, n for values below it.

// known answers, use as guide
INPUT: Check this molecule for composite z-score at or above 0.8: COCCOC(=O)N1C(=O)[C@@]2(c3ccccc31)[C@H](C(=O)N1CCCCCCC1)[C@H]1C(=O)O[C@H](c3ccccc3)[C@H](c3ccccc3)N1[C@@H]2c1ccc(O)cc1
OUTPUT: y

INPUT: Check this molecule for composite z-score at or above 0.8: CC(C)C[C@@H]1NC(=O)C([C@@H](C)OCc2ccccc2)NC(=O)[C@@]23C(=O)N[C@@H](Cc4ccccc4)C2[C@H](C)[C@@]2(C)O[C@H]2C3/C=C/CC/C=C/CNC1=O (stereo partly specified)
OUTPUT: y

INPUT: Check this molecule for composite z-score at or above 0.8: C=CCNC(=O)[C@@H]1[C@H]2C(=O)O[C@H](c3ccccc3)[C@H](c3ccccc3)N2[C@H](c2ccccc2OCCO)[C@@]12C(=O)N(C(=O)OCCOC)c1ccc(C#CCCO)cc12
OUTPUT: y

INPUT: Check this molecule for composite z-score at or above 0.8: O=C1NC(=O)C2C1C=CC(C(O)c1cccc(O)c1)N2Nc1ccc(Cl)cc1Cl (stereo unspecified)
OUTPUT: n

Would you kindly look at the next entry?
INPUT: Check this molecule for composite z-score at or above 0.8: CO[C@H]1O[C@H](CO)[C@@H](OC(=O)Nc2ccc3c(c2)OCO3)[C@@H]2OC(=O)[C@@H](Cc3ccccc3)C/C=C/C[C@H](Cc3ccccc3)C(=O)O[C@@H]12
OUTPUT: n

* * *

experiment: small-molecule microarray binders of probe aShh, primary screen, biochemical, biotinylated probe, 635/667 nm fluorescence (AID 1114); settings: higher = more signal;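 also: probe is biotin-labelled aShh protein from a stem cell growth factor screen; measures binding of labelled protein to compounds printed on the slide; score merges feature fluorescence at 667 nm with signal-to-noise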
Each record here notes measured composite z-score.
Lab note: write the figure by itself, no unit.

Answered cases to consult:
Form field composite z-score, entry CCCCCCc1nc(-c2ccc(OC)nc2)cc2c1[Si](C(C)C)(C(C)C)OC2 : -0.262

Form field composite z-score, entry NC(=O)[C@@]1(CCS(=O)(=O)c2ccccc2)COC(c2ccc(OCCCO)cc2)=N1 : 0.138

Form field composite z-score, entry COC(=O)[C@@]1(Cc2ccccc2)[C@@H]2[C@@H](CC(=O)[C@H]2CC(=O)C(=O)N(C)C)CN1C(=O)c1ccccc1 : -0.0322

Form field composite z-score, entry CCCCC(=C=CC[C@@H](O)c1cccc(OCCO)c1)CCO : 0.0121

Form field composite z-score, entry COC(=O)[C@@]1(Cc2ccccc2CN=[N+]=[N-])COC(c2ccc(OCCCO)cc2)=N1 : 1.69

***
Form field composite z-score, entry CCOC(=O)C[C@H]1[C@H](OC(=O)c2ccc(-c3ccccc3)cc2)[C@@H](NC(=O)c2ccc3ccccc3c2)c2cc(OCCCO)ccc2N1C(=O)c1ccccc1 : 0.0637

Form field composite z-score, entry COc1ccccc1CN1C(=O)c2ccccc2[C@](Cc2ccccc2I)(C(=O)NCCCN(C)C)[C@@H]1c1ccc(CO)cc1 : 0.215

Form field composite z-score, entry C=CCC(OC(C)=O)[C@@H]1[C@@H](N(Cc2cc3ccccc3o2)C(=O)Cc2ccc(OC)cc2)c2cc(OCCCO)ccc2N1C(=O)Cc1ccc2ccccc2c1 (stereo not given in full) : 0.0815

Form field composite z-score, entry CO[C@H]1O[C@H](CO)[C@@H](OC(=O)Nc2ccccc2)[C@@H]2OC(=O)[C@H](Cc3ccccc3)C/C=C/C[C@@H](Cc3ccccc3)C(=O)O[C@@H]12 : 0.0639

* * *

Each record here notes measured z-score.
assay: basal S. cerevisiae growth modulation, no modifier, primary screen, OD600, strain BY4716, 24 h, basal condition (AID 1173); conditions: OD600, 24 h, higher = more signal, called active from +8 up or from −8 down
Lab note: write the figure by itself, no unit.

Answered cases to consult:
Form field z-score, entry C=CCC(OC(C)=O)[C@@H]1[C@@H](N(Cc2ccc(-c3ccccc3)cc2)C(=O)c2cccc3ccccc23)c2cc(OCCCO)ccc2N1C(=O)c1ccc2ccccc2c1 (stereo partly specified) : -0.185

Form field z-score, entry C=CC[C@@]1(C(=O)N(C)C)N=C(c2ccc(OCCCO)cc2)O[C@@H]1c1ccccc1 : -2.54

Form field z-score, entry COc1ccc(C#Cc2ccc3c(c2)[C@]2(C(=O)N3)[C@H](c3ccc(OCCO)cc3)N3[C@H](c4ccccc4)[C@H](c4ccccc4)OC(=O)[C@H]3[C@@H]2C(=O)O)cc1 : 1.85

Form field z-score, entry C=CCC(OC(C)=O)[C@@H]1[C@@H](N(Cc2cccc3ccccc23)C(=O)c2cccc3ccccc23)c2cc(OCCCO)ccc2N1C(=O)Cc1ccc2ccccc2c1 (stereo partly specified) : -0.599

Form field z-score, entry C=CCC(OC(C)=O)[C@@H]1[C@@H](N(Cc2ccc(-c3cccc(C(F)(F)F)c3)o2)C(=O)Cc2ccc(F)cc2)c2cc(OCCCO)ccc2N1C(=O)c1ccc2ccccc2n1 (stereo partly specified) : 0.441

Read the next record carefully.
Form field z-score, entry COc1cc2c(cc1O)C(c1ccc(CN3CCCC3)cc1)N(Cc1cccc(OC(F)(F)F)c1)CC2 (stereo unspecified) : -16.5

* * *

assay: small-molecule binders of probe aInhba, primary screen, biochemical, small-molecule microarray, 635/667 nm fluorescence (AID 1148); details: higher = more signal;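 also: score merges 667nm spot fluorescence with signal-to-noise for antibody binding to printed compounds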
ATTRIBUTE MEASURED: composite z-score

Form field composite z-score, entry CCCCC(=C=CC[C@@H](O)c1cccc(OCCO)c1)C[C@@H](O)COCc1ccccc1 : -0.05

***
Form field composite z-score, entry COc1ccc(NN2C(C(O)c3cc(C(F)(F)F)cc(C(F)(F)F)c3)C=CC3C(=O)N(C4CCCCC4)C(=O)C32)cc1 (centres undefined) : 1.19

Form field composite z-score, entry CN(C)CCCC[C@@H]1NC(=O)[C@@H]2C[C@H](C(=O)NCCCCCCNC(=O)CS)[C@H](c3cccc(OCCO)c3)N2C1=O : -0.0471

Form field composite z-score, entry O=C1NC(=O)C2C1C=CC(C(O)c1cccc(O)c1)N2Nc1ccc(Cl)cc1Cl (centres undefined) : -0.13

* * *

experiment: small-molecule microarray binders of probe aLefty2, primary screen, biochemical, biotinylated probe, 635/667 nm fluorescence (AID 1094); conditions: higher = more signal;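 also: score merges spot fluorescence near 667 nm with spot signal-to-noise ratio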
Each record here notes measured composite z-score.
Lab note: write the figure by itself, no unit.

Form field composite z-score, entry CN(C)C(=O)[C@]1(Cc2ccccc2)N=C(c2ccc(OCCCO)cc2)O[C@@H]1c1ccccc1 : 0.0735

Form field composite z-score, entry CCC[C@@H]1[C@@H](Sc2ccccc2)[C@@H](C(=O)O)[C@H](c2ccc(C)cc2)N1S(=O)(=O)c1ccc(C)cc1 : 0.114

Form field composite z-score, entry C[C@@H](OCc1ccccc1)C1NC(=O)[C@@]23C(=O)N[C@@H](Cc4ccccc4)C2[C@H](C)[C@@]2(C)O[C@H]2C3/C=C/C/C=C\CNC(=O)[C@H](Cc2ccccc2)NC1=O (stereo partly drawn) : -0.23

***
Form field composite z-score, entry CCCC=C(CCC)[C@@H](NC(=O)c1ccccc1)c1ccc(C(=O)OC)cc1 : 0.688

Form field composite z-score, entry CCCCC(O)C1C=CC2C(=O)NC(=O)C2N1Nc1ccc(Cl)cc1Cl (stereo not drawn) : 0.259

Form field composite z-score, entry CC(C)CNC(=O)[C@@H]1c2ccccc2C(=O)N(C(C)C)[C@H]1c1ccc(CO)cc1 : -0.166

Form field composite z-score, entry COC(=O)C1=CC(CCCO)=CC(c2ccc(CN3CCCC3)cc2)N(Cc2sc3ccccc3c2Cl)C=C1C(=O)OC (stereo not drawn) : 0.91

Form field composite z-score, entry COc1cc(OC)c(C(O)C2C=CC3C(=O)N(c4ccccc4)C(=O)C3N2Nc2ccccc2F)cc1Br (stereo not drawn) : 0.0235

* * *

target: Calmodulin-1 (Homo sapiens) (UniProt P0DP23); assay: calcium-bound CALM1 binders on microarrays, profiling panel, artefact control for SMM control-protein annotation, biochemical, small-molecule microarray, Cy5-labelled CALM1, plus calcium (AID 1112); settings: Cy5-CALM1 binding fluorescence, higher = more signal;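 also: score merges spot fluorescence with signal to noise from triplicate slides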
ATTRIBUTE MEASURED: composite z-score

Answered cases to consult:
Form field composite z-score, entry CC(C)C[C@@H]1NC(=O)[C@H]2C[C@@H](C(=O)NCCCCCCNC(=O)CS)[C@@H](c3ccc(O)cc3)N2C1=O : 0.858

Form field composite z-score, entry NCCCC[C@@H]1NC(=O)[C@H]2C[C@@H](C(=O)NCc3ccc(F)cc3)[C@@H](c3ccc(O)cc3)N2C1=O : 0.428

Form field composite z-score, entry C[C@]1(C(=O)NCC(F)(F)F)c2ccccc2C(=O)N(Cc2ccc(OC(F)(F)F)cc2)[C@H]1c1ccc(CO)cc1 : -0.373

***
Form field composite z-score, entry C=CCC(OC(C)=O)[C@@H]1[C@@H](N(Cc2ccc(-c3cccc(C(F)(F)F)c3)o2)C(=O)Cc2ccc(F)cc2)c2cc(OCCCO)ccc2N1C(=O)c1ccc2ccccc2n1 (some centres undefined) : 0.195
